# Lookup of reported normalized growth keyed by entry
EXPERIMENT: chemical genetic growth profiling, strain panel (AID 1159580);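 further: tested at 20 µM; growth read once vehicle control cultures reached saturation at 30 °C; 1 = growth at the plate median or of vehicle wells; lower values mean less growth of the strain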
CONDITION: S. cerevisiae deletion strains, growth OD, locus YLR418C, strain cdc73, active compounds read low
Screen size: about 5,500 compounds; about 2,000 (36%) were called active. Another 18% or so got no clear call; they are omitted. Some of the results follow.
No unit in the answer, please; the number alone is enough.

Answered examples (6):
Query :: Hello, please tell me recorded normalized growth for this one: "COc1ccc(-c2coc3cc(O)ccc3c2=O)c(OC)c1"
Result :: 0.971

Query :: Hello, please tell me recorded normalized growth for this one: CCn1cc(C(=O)O)c(=O)c2cc(F)c(N3CCNC(C)C3)c(F)c21 (configuration not stated)
Result :: 0.892

Query :: Hello, please tell me recorded normalized growth for this one: COc1ccc(C(CN(C)C)C2(O)CCCCC2)cc1 (configuration not stated)
Result :: 0.96

Query :: Hello, please tell me recorded normalized growth for this one: CC(=O)S[C@@H]1CC2=CC(=O)CC[C@]2(C)[C@H]2CC[C@@]3(C)[C@@H](CC[C@@]34CCC(=O)O4)C12 (some centres not stated)
Result :: 1.03

Query :: Hello, please tell me recorded normalized growth for this one: C/C=C(\C)C(=O)O[C@H]1C[C@@H](OC(C)=O)[C@@]2(C(=O)OC)CO[C@@H]3C2[C@]12CO[C@](O)(C(=O)OC)[C@H]2[C@](C)(C12O[C@@]1(C)[C@H]1C[C@@H]2OC2OC=C[C@@]21O)[C@@H]3O (some centres not stated)
Result :: 1

Query :: Hello, please tell me recorded normalized growth for this one: "COc1ccc(C(c2ccc(OC)cc2)C(Cl)(Cl)Cl)cc1"
Result :: 0.993

Further cases:
Query :: Hello, please tell me recorded normalized growth for this one: "O=C(O)CCCc1ccccc1"
Result :: 1.02

Query :: Hello, please tell me recorded normalized growth for this one: "C[n+]1c2cc(N)ccc2cc2ccc(N)cc21"
Result :: 0.727

Query :: Hello, please tell me recorded normalized growth for this one: "COc1ccccc1-c1coc2cc(O)ccc2c1=O"
Result :: 0.969

Query :: Hello, please tell me recorded normalized growth for this one: COc1c(N2CCNC(C)C2)c(F)cc2c(=O)c(C(=O)O)cn(C3CC3)c12 (configuration not stated)
Result :: 0.973

Query :: Hello, please tell me recorded normalized growth for this one: "O=c1c(-c2ccc(O)cc2)coc2cc(O)ccc12"
Result :: 0.888

Query :: Hello, please tell me recorded normalized growth for this one: CC1COc2c(N3CCN(C)CC3)c(F)cc3c(=O)c(C(=O)O)cn1c23 (configuration not stated)
Result :: 1.02

Query :: Hello, please tell me recorded normalized growth for this one: "O=C(O)CCCc1ccc(N(CCCl)CCCl)cc1"
Result :: 1.03

Query :: Hello, please tell me recorded normalized growth for this one: "COc1ccc(-c2coc3cc(O)ccc3c2=O)cc1"
Result :: 0.74

Query :: Hello, please tell me recorded normalized growth for this one: "N[C@@H](Cc1ccc(N(CCCl)CCCl)cc1)C(=O)O"
Result :: 0.976

Query :: Hello, please tell me recorded normalized growth for this one: "CCn1cc(C(=O)O)c(=O)c2cc(F)c(N3CCNCC3)nc21"
Result :: 1.01

Query :: Hello, please tell me recorded normalized growth for this one: "Clc1ccc(C(c2ccc(Cl)cc2)C(Cl)(Cl)Cl)cc1"
Result :: 0.984

====

EXPERIMENT: chemical genetic growth profiling, strain panel (AID 1159580);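 further: tested at 20 µM; growth read once vehicle control cultures reached saturation at 30 °C; 1 = growth at the plate median or of vehicle wells; lower values mean less growth of the strain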
CONDITION: S. cerevisiae deletion strains, growth OD, locus YLR058C, strain SHM2
Screen size: about 5,500 compounds; about 2,000 (36%) were called active. About 18% were inconclusive and are not listed. Cut-off read from the data, not from the text of the source: active = normalized growth mostly below about 0.91 (no sharp cut-off); inconclusive = no clear call, values can overlap the other calls; inactive = mostly above about 0.92. The list shows a part of the results.
Field 'call' accepts true (active), false (inactive)

Examples with answers:
Query :: For CN1C2CCC1CC(OC(c1ccccc1)c1ccccc1N)C2 (stereo unspecified) , what call appears in the results of this test?
Result :: false

Query :: For "CN1CC(=O)N=C1N" , what call appears in the results of this test?
Result :: false

Query :: For C=C[C@@](C)(O)CCC1C(=C)CCC2[C@@](C)(CO)CCC[C@]12C (stereo partly specified) , what call appears in the results of this test?
Result :: false

Query :: For "CC[C@@]1(O)C[C@H](O)c2c(cc3c(c2O)C(=O)c2c(O)ccc(O)c2C3=O)[C@H]1C(=O)OC" , what call appears in the results of this test?
Result :: true

Query :: For Cn1c(=O)c2c(ncn2CC(O)CO)n(C)c1=O (stereo unspecified) , what call appears in the results of this test?
Result :: false

Query :: For Oc1cc(O)c2c(c1)OC(c1cc(O)c(O)c(O)c1)C(O)C2c1c(O)cc(O)c2c1OC(c1cc(O)c(O)c(O)c1)C(O)C2c1c(O)cc(O)c2c1OC(c1cc(O)c(O)c(O)c1)C(O)C2 (stereo unspecified) , what call appears in the results of this test?
Result :: true

Query :: For "O=C1C(Cl)=C(Cl)C(=O)C(Cl)=C1Cl" , what call appears in the results of this test?
Result :: false

Query :: For C=C[C@@](C)(O)CCC1C(=C)C[C@H](O)C2C(C)(C)CCCC12C (stereo partly specified) , what call appears in the results of this test?
Result :: false

Next, consider the following compound.
Query :: For "COc1ccc(C(=O)O)cc1OC" , what call appears in the results of this test?
Result :: false

====

EXPERIMENT: chemical genetic growth profiling, strain panel (AID 1159580);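 further: tested at 20 µM; growth read once vehicle control cultures reached saturation at 30 °C; 1 = growth at the plate median or of vehicle wells; lower values mean less growth of the strain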
CONDITION: S. cerevisiae deletion strains, growth OD, locus YHR129C, strain ARP1
Out of some 5,500 compounds screened, about 2,000 (36%) were called active. Not shown: some 18% with an inconclusive outcome. Cut-off read from the data, not from the text of the source: active = normalized growth mostly below about 0.91 (no sharp cut-off); inconclusive = no clear call, values can overlap the other calls; inactive = mostly above about 0.92. The list shows a part of the results.
Field 'call' accepts active, inactive

Examples with answers:
Query :: For "CN(C)CCN(Cc1cccs1)c1ccccn1" , what call appears in the results of this test?
Result :: inactive

Query :: For Clc1ccc(C(OCCN2CCCCC2)c2ccccc2)cc1 (centres undefined) , what call appears in the results of this test?
Result :: inactive

Query :: For CCC1(O)CC(OC2CC(N(C)C)C(OC3CC(O)C(OC4CCC(=O)C(C)O4)C(C)O3)C(C)O2)c2c(cc3c(c2O)C(=O)c2c(O)cccc2C3=O)C1C(=O)OC (centres undefined) , what call appears in the results of this test?
Result :: inactive

Query :: For "CN1CCC(OC(c2ccccc2)c2ccccc2)CC1" , what call appears in the results of this test?
Result :: inactive

Further cases:
Query :: For O=C1CCC(N2C(=O)c3ccccc3C2=O)C(=O)N1 (centres undefined) , what call appears in the results of this test?
Result :: inactive

Query :: For "O=C1c2ccc(O)cc2O[C@H](c2cc(O)c(O)c(O)c2)[C@H]1O" , what call appears in the results of this test?
Result :: inactive

Query :: For OCC(O)CN1CCN(c2ccccc2)CC1 (centres undefined) , what call appears in the results of this test?
Result :: inactive

Query :: For "CC1(C)S[C@@H]2[C@H](NC(=O)[C@H](N)c3ccccc3)C(=O)N2[C@H]1C(=O)O" , what call appears in the results of this test?
Result :: inactive

Query :: For "O=C1NCC2(CCN(CCc3ccccc3)CC2)O1" , what call appears in the results of this test?
Result :: inactive

Query :: For "CN(C)CCN(Cc1ccccc1)c1ccccn1" , what call appears in the results of this test?
Result :: inactive

Query :: For CN(C)CCOC(c1ccc(Cl)cc1)c1ccccn1 (centres undefined) , what call appears in the results of this test?
Result :: inactive

====

EXPERIMENT: chemical genetic growth profiling, strain panel (AID 1159580);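 further: tested at 20 µM; growth read once vehicle control cultures reached saturation at 30 °C; 1 = growth at the plate median or of vehicle wells; lower values mean less growth of the strain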
CONDITION: S. cerevisiae deletion strains, growth OD, strain wtn01, active compounds read low
Among all 5,500 compounds or so, about 2,000 (36%) were called active. Not shown: some 18% with an inconclusive outcome. The list shows a part of the results.
# Lookup of reported normalized growth keyed by entry
No unit in the answer, please; the number alone is enough.

Query :: Hello, please tell me recorded normalized growth for this one: "NS(=O)(=O)c1cc2c(cc1Cl)NC=NS2(=O)=O"
Result :: 1

Query :: Hello, please tell me recorded normalized growth for this one: COc1ccc(OC)c(C(O)CNC(=O)CN)c1 (stereo unspecified)
Result :: 1.01

Query :: Hello, please tell me recorded normalized growth for this one: "C#CCN(C)Cc1ccccc1"
Result :: 1.02

Query :: Hello, please tell me recorded normalized growth for this one: "CNC(=O)O/N=C(\C)SC"
Result :: 0.997

Query :: Hello, please tell me recorded normalized growth for this one: "CN1CC(=O)N=C1N"
Result :: 0.974

Further cases:
Query :: Hello, please tell me recorded normalized growth for this one: CC1CCc2cc(F)cc3c(=O)c(C(=O)O)cn1c23 (stereo unspecified)
Result :: 0.95

Query :: Hello, please tell me recorded normalized growth for this one: CC[C@@H](C(=O)C(C)[C@@H](O)[C@H](C)CCc1ccc(C)c(O)c1C(=O)O)C1OC(CC)(C2CC[C@](O)(CC)[C@H](C)O2)C[C@@H]1C (stereo partly specified)
Result :: 1.02

Query :: Hello, please tell me recorded normalized growth for this one: "c1ccc2c(c1)sc1ccccc12"
Result :: 0.893

Query :: Hello, please tell me recorded normalized growth for this one: NCCC(O)C(=O)NC1CC(N)C(OC2OC(CN)C(O)C(O)C2N)C(OC2OC(CO)C(O)C2O)C1O (stereo unspecified)
Result :: 0.993

Query :: Hello, please tell me recorded normalized growth for this one: "C[C@H]1COc2c(N3CCN(C)CC3)c(F)cc3c(=O)c(C(=O)O)cn1c23"
Result :: 1.01

Query :: Hello, please tell me recorded normalized growth for this one: COC(=O)[C@@H]1OC(=O)C2OC23[C@@]1(C)CCC1[C@]2(C)C(C[C@H](O)[C@]13C)C(C)(C)[C@H](OC(C)=O)C[C@@H]2OC(C)=O (stereo partly specified)
Result :: 1

Where do these numbers come from? They come from PubChem BioAssay AID1159580.
